target: Proteasome subunit beta (Trypanosoma cruzi); experiment: Trypanosoma cruzi proteasome chymotrypsin-like activity (TcProtChymo) assay.; format: functional; parameters: scale not given: in the data most compounds retested in dose-response had high values; details: 9.37 µM
Reported Property: Percent Effect

{"Compound": "COCC1CN(Cc2cc(C)on2)Cc2cn(C)nc21 (centres undefined)", "Measured": "9.06%"}

Kindly give each listed record's Percent Effect.
1. CC(=O)N1CCCN(c2nccc(-c3cn(C)nc3C)n2)CC1
2. CS(=O)(=O)NCCCN1CCCC1Cc1ccccc1 (centres undefined)
3. COCCN1CCN(CCCS(C)(=O)=O)CC1C (centres undefined)

A:
["9.24%", "9.09%", "9.16%"]
